# target_or_test_system: Opioid receptors; mu/kappa/delta (Homo sapiens, UniProt P41145+P41143+P35372)
# experiment_notes: Displacement of [3H] naloxone from opioid receptor (unknown origin) in presence of 100 mM NaCl
What IC50 was measured for each of the following?

Solved entries:
> print(dat)
                                        smi       result
1  C=CCN1CC[C@]23c4c5ccc(O)c4O[C@H]2[C@H](N)CC[C@@]3(O)[C@H]1C5.Cl  5.3 ×10⁻⁸ M
2  C=CCN1CC[C@]23c4c5ccc(O)c4O[C@H]2[C@@H](N)CC[C@@]3(O)[C@H]1C5.Cl  1.1 ×10⁻⁷ M
3  Cl.N[C@H]1CC[C@@]2(O)[C@H]3Cc4ccc(O)c5c4[C@@]2(CCN3CC2CC2)[C@H]1O5         9 nM

What reported IC50 corresponds to `Cl.N[C@@H]1CC[C@@]2(O)[C@H]3Cc4ccc(O)c5c4[C@@]2(CCN3CC2CC2)[C@H]1O5` on Opioid receptors; mu/kappa/delta (Homo sapiens, UniProt P41145+P41143+P35372)?
7 ×10⁻¹⁰ M

###

# target_or_test_system: Opioid receptors; mu/kappa/delta (Homo sapiens, UniProt P41145+P41143+P35372)
# experiment_notes: Displacement of [3H] naloxone from opioid receptor (unknown origin)
measure_name: IC50

Sample records with IC50:
> print(dat)
                                        smi                     target.or.test.system  measure.name       result
1  Cl.N[C@H]1CC[C@@]2(O)[C@H]3Cc4ccc(O)c5c4[C@@]2(CCN3CC2CC2)[C@H]1O5  Opioid receptors; mu/kappa/delta (Homo sapiens, UniProt P41145+P41143+P35372)          IC50       2.9 nM
2  C=CCN1CC[C@]23c4c5ccc(O)c4O[C@H]2[C@@H](N)CC[C@@]3(O)[C@H]1C5.Cl  Opioid receptors; mu/kappa/delta (Homo sapiens, UniProt P41145+P41143+P35372)          IC50  1.4 ×10⁻⁷ M
3  C=CCN1CC[C@]23c4c5ccc(O)c4O[C@H]2[C@H](N)CC[C@@]3(O)[C@H]1C5.Cl  Opioid receptors; mu/kappa/delta (Homo sapiens, UniProt P41145+P41143+P35372)          IC50  8.6 ×10⁻⁸ M

Read the next record carefully.
Recorded IC50 for `Cl.N[C@@H]1CC[C@@]2(O)[C@H]3Cc4ccc(O)c5c4[C@@]2(CCN3CC2CC2)[C@H]1O5` , please?
9.1 ×10⁻¹⁰ M
